Reported values of MIC for individual entries
System: Proteus vulgaris ATCC 881
State just the number; it will be interpreted in µg/mL.

Worked examples follow.
smiles str | MIC [µg/mL]
CO[C@H]1/C=C/O[C@@]2(C)Oc3c(C)c(O)c4c(c3C2=O)C(=O)C=C(NC(=O)/C(C)=C\C=C\[C@H](C)[C@H](O)[C@@H](C)[C@@H](O)[C@@H](C)[C@H](OC(=O)CSC)[C@@H]1C)C4=O | 8
CCn1cc(C(=O)OCC(=O)O[C@H]2[C@H](C)[C@H](O)[C@H](C)[C@@H](O)[C@@H](C)/C=C/C=C(/C)C(=O)NC3=CC(=O)c4c(c(O)c(C)c5c4C(=O)[C@@](C)(O/C=C/[C@H](OC)[C@H]2C)O5)C3=O)c(=O)c2cc(F)c(N3CCN(C)CC3)cc21 | 128
CO[C@H]1/C=C/O[C@@]2(C)Oc3c(C)c(O)c4c(c3C2=O)C(=O)C=C(NC(=O)/C(C)=C\C=C\[C@H](C)[C@H](O)[C@@H](C)[C@@H](O)[C@@H](C)[C@H](OC(=O)CCl)[C@@H]1C)C4=O | 8

Could you now look at the following compound, please?
// map CCn1cc(C(=O)OCC(=O)O[C@H]2[C@H](C)[C@H](O)[C@H](C)[C@@H](O)[C@@H](C)/C=C/C=C(/C)C(=O)Nc3c(C=NN4CCN(C)CC4)c(O)c4c5c(c(C)c(O)c4c3O)O[C@](C)(O/C=C/[C@H](OC)[C@H]2C)C5=O)c(=O)c2cnc(N3CCN(C)CC3)nc21 to recorded MIC (system: Proteus vulgaris ATCC 881)
64

* * *

System: Staph. aureus rifa-r^(2)
Assay: MIC by broth microdilution
Assay type: cell-based
Conditions: Staphylococcus aureus, read-out: MIC of the compounds
Reported values of MIC for individual entries
State just the number; it will be interpreted in µg/mL.

smiles str | target or system | display unit | MIC
CO[C@H]1/C=C/O[C@@]2(C)Oc3c(C)c(O)c4c(c3C2=O)C(=O)C=C(NC(=O)/C(C)=C\C=C\[C@H](C)[C@H](O)[C@@H](C)[C@@H](O)[C@@H](C)[C@H](OC(=O)CI)[C@@H]1C)C4=O | Staph. aureus rifa-r^(2) | µg/mL | 32
CCN(CC)CC(=O)O[C@H]1[C@H](C)[C@H](O)[C@H](C)[C@@H](O)[C@@H](C)/C=C/C=C(/C)C(=O)NC2=CC(=O)c3c(c(O)c(C)c4c3C(=O)[C@@](C)(O/C=C/[C@H](OC)[C@H]1C)O4)C2=O | Staph. aureus rifa-r^(2) | µg/mL | 32
CO[C@H]1/C=C/O[C@@]2(C)Oc3c(C)c(O)c4c(c3C2=O)C(=O)C=C(NC(=O)/C(C)=C\C=C\[C@H](C)[C@H](O)[C@@H](C)[C@@H](O)[C@@H](C)[C@H](OC(=O)CCl)[C@@H]1C)C4=O | Staph. aureus rifa-r^(2) | µg/mL | 16

Could you now look at the following compound, please?
Look at this compound and give its reported MIC. CCn1cc(C(=O)OCC(=O)O[C@H]2[C@H](C)[C@H](O)[C@H](C)[C@@H](O)[C@@H](C)/C=C/C=C(/C)C(=O)NC3=C(N4CCOCC4)C(=O)c4c(c(O)c(C)c5c4C(=O)[C@@](C)(O/C=C/[C@H](OC)[C@H]2C)O5)C3=O)c(=O)c2cc(F)c(N3CCN(C)CC3)cc21
0.13
